- Tested on: NCI-H460 lung
- MEASUREMENT PROTOCOL: NCI-60 one-dose screen, 48 h
- CONDITIONS: 10 µM
- Method: Growth inhibition of the NCI-H460 human Non-Small Cell Lung tumor cell line is measured as a screen for anti-cancer activity. Cells are grown in 96 well plates and exposed to the test compound for 48 hours. Compounds are tested at a single concentration, which is 10^-5 M for most compounds. The reported endpoint is percent growth (GI% or GIPRCNT), where numbers from 0 - 100% represent growth inhibition, and numbers from -100% - 0 represent cell death. […]
This is part of a sample that, as a whole, favours compounds with a hit. Of some 83,000 tested, about 20% had one in any assay. Activity calls are given as the source filed them. Rule for the calls: active = growth percent below 10; inactive = the rest.
API: response.call in active, inactive

Examples with answers:
O=C(N/C(=C1/OCCN1Cc1ccccc1)[P+](c1ccccc1)(c1ccccc1)c1ccccc1)c1ccccc1    active
COc1ccc(OC)c(-c2cc(-c3c[nH]c4ccccc34)nc(N)c2C#N)c1    active
CC(=O)Nc1ccc(-n2cnc3cc(-c4ccc(NS(C)(=O)=O)cc4)ccc32)cc1    inactive
CN1CCN(c2ccc(Nc3nc(NCCCNC(=O)C4CCCCC4)c4sccc4n3)cc2)CC1    inactive
N[C@@H](CSSC[C@H](N)C(=O)Nc1ccc(OCC2CCCC2)cc1)C(=O)Nc1ccc(OCC2CCCC2)cc1    active
O=C(CSc1ccc(-c2ccc(Cl)cc2)nn1)Nc1ccc(Cl)c(C(F)(F)F)c1    inactive
COc1ccc(C(=O)/C=C/c2cc(F)cc(C(F)(F)F)c2)cc1S(N)(=O)=O    active
O=C(CS(=O)(=O)c1oc(-c2ccc(Cl)cc2)nc1S(=O)(=O)c1ccc(Cl)cc1)N1CCOCC1    inactive

Read the next record carefully.
Prompt line: Please share the test call associated with O=C(CS(=O)(=O)c1oc(-c2ccc(Cl)cc2)nc1S(=O)(=O)c1ccccc1)N1CCCC1 .
Response line: inactive

----------
# key: entry, value: growth
- Tested on: MDA-MB-468 breast
- MEASUREMENT PROTOCOL: NCI-60 one-dose screen, 48 h (100 = growth as untreated, 0 = no growth, -100 = all killed)
- CONDITIONS: 10 µM
- Procedure: Growth inhibition of the MDA-MB-468 human Breast tumor cell line is measured as a screen for anti-cancer activity. Cells are grown in 96 well plates and exposed to the test compound for 48 hours. Compounds are tested at a single concentration, which is 10^-5 M for most compounds. The reported endpoint is percent growth (GI% or GIPRCNT), where numbers from 0 - 100% represent growth inhibition, and numbers from -100% - 0 represent cell death. […]
This is part of a sample that, as a whole, favours compounds with a hit. Of some 83,000 tested, about 20% had one in any assay.
Answer in %, number only, no unit symbol.

Solved cases below.
N#Cc1ccc(-c2nn(-c3ccc(C(=O)O)cc3)cc2CNc2ccc(Cl)cc2)cc1    116
CC(=O)OC[C@@]1(C)C2CC[C@]3(C)C(CC=C4C5CC(C)(C)CC[C@]5(C(=O)Nc5ccccc5)CC[C@]43C)[C@@]2(C)C[C@@H](OC(C)=O)[C@@H]1OC(C)=O (some centres undefined)    -4.16
CCCn1c(=O)c2[nH]c(-c3ccc(OCc4nc5ccc(C(F)(F)F)cc5[nH]4)cc3)nc2n(CCC)c1=O    30.8

Let us move to another entry and its growth.
Prompt line: Fill in the recorded growth for this compound, with MDA-MB-468 breast as test system: Cc1cc(=O)oc2cc(OCCCCOc3ccc(/C=C/C(=O)Nc4ccccc4[N+](=O)[O-])cc3)ccc12
Response line: 169

----------
# key: entry, value: growth
- Tested on: NCI-H322M lung
- MEASUREMENT PROTOCOL: NCI-60 one-dose screen, 48 h (100 = growth as untreated, 0 = no growth, -100 = all killed)
- CONDITIONS: 10 µM
The panel holds about 83,000 compounds, 20% with a hit somewhere; the sample as a whole holds those more often. Calls of active or inactive are those of the source. How the source made its calls: active means growth percent below 10; inactive means the rest.

Solved cases below.
CCOP(=O)(OCC)O[C@H]1CCC(=O)[C@@H]2[C@H]1[C@H]1C[C@@H]3[C@@]4(C)CCCC(C)(C(=O)OC)[C@@H]4CC[C@@]23C=C1C(C)C (stereo partly drawn)    102% (inactive)
CC1(C)CC[C@]23CC[C@]4(C)[C@H](CC[C@@H]5[C@@]6(C)CC[C@H](N)C(C)(C)[C@@H]6CC[C@]54C)[C@H]2[C@H]1OC3=O    -99.5% (active)
CN1CCN(c2ccc(C(=O)/C=C/c3ccc(OC(F)F)cc3)cc2)CC1    70.6% (inactive)

Prompt line: Fill in the recorded growth for this molecule, with NCI-H322M lung as test system: CCOC(=O)C1=C(N)N(c2ccc(Cl)cc2)C2=C(C(=O)CC(C)(C)C2)C1c1ccc(N2CCOCC2)cc1 (stereo not drawn)
Response line: 95.4% (inactive)

Prompt line: Fill in the recorded growth for this molecule, with NCI-H322M lung as test system: CNC(=O)c1cccc(N2CCc3c2ccc(NC(=O)Nc2ccc(N4CCN(C)CC4)c(C(F)(F)F)c2)c3F)c1
Response line: -92% (active)

Prompt line: Fill in the recorded growth for this molecule, with NCI-H322M lung as test system: CCN(CC)CCOc1ccc(C(=C(C)c2ccccc2)c2ccc(OCCN(CC)CC)cc2)cc1
Response line: 31.1% (inactive)

Prompt line: Fill in the recorded growth for this molecule, with NCI-H322M lung as test system: CCOC(=O)c1c(CSc2ccccc2)n(C)c2cc(CN(C)C)c(O)c(CN(C)C)c12
Response line: 47.7% (inactive)

Prompt line: Fill in the recorded growth for this molecule, with NCI-H322M lung as test system: Cc1ccc(-c2cc(-c3cc4ccccc4nc3Cl)[nH]c(=O)n2)cc1
Response line: 32.1% (inactive)

Prompt line: Fill in the recorded growth for this molecule, with NCI-H322M lung as test system: O=c1cc(-c2ccccc2)oc2cc(OCCCNCc3ccccc3)cc(O)c12
Response line: 31% (inactive)

----------
- System: UACC-62 melanoma
- MEASUREMENT PROTOCOL: NCI-60 one-dose screen, 48 h
- CONDITIONS: 10 µM
Compounds without any hit were thinned out: in the full panel of roughly 83,000, 20% have a hit. Calls of active or inactive are those of the source. How the source made its calls: active means growth percent below 10; inactive means the rest.
API: response.call in active, inactive

Examples with answers:
O=C(c1ccc(O)cc1)C1[C@H](c2ccc(Br)cc2)[C@@H](c2ccccc2)NC12C(=O)Nc1ccccc12 (stereo not given in full)    inactive
COc1ccc(N(C)c2cc(C#N)nc3ccccc23)cc1N    inactive
CN1CCN(c2ccc(Nc3nc(NCCCNC(=O)c4ccc(Cl)cc4)c4sccc4n3)cc2)CC1    inactive
O=C(Nc1ccc(Cl)c([N+](=O)[O-])c1)Nc1ccc(Cl)c([N+](=O)[O-])c1    active

Read the next record carefully.
Prompt line: Please share the test call associated with Cc1ccc(C(=O)NCCCNc2nc(Nc3ccc(N4CCN(C)CC4)cc3)nc3ccsc23)cc1 .
Response line: inactive

----------
- Tested on: M14 melanoma
- MEASUREMENT PROTOCOL: NCI-60 one-dose screen, 48 h
- CONDITIONS: 10 µM
Compounds without any hit were thinned out: in the full panel of roughly 83,000, 20% have a hit. Activity calls are given as the source filed them. Rule for the calls: active = growth percent below 10; inactive = the rest.
API: response.call in active, inactive

Examples with answers:
O=C1CCC(N2Cc3c(C#CCCCNC(=O)c4ccc(NC(=O)[C@@H]5NC6(CCCCC6)[C@@]6(C(=O)Nc7cc(Cl)ccc76)[C@H]5c5cccc(Cl)c5F)cc4)cccc3C2=O)C(=O)N1 (some centres not stated)    inactive
CN(C)c1ccc(/C=C/c2nc3ccccc3c(=O)n2CC(=O)Nc2ccc(Cl)cc2)cc1    inactive
COc1cc(-c2nc3cc(Cl)c(Cl)cc3[nH]2)ccc1OCc1nnc(-c2ccc(Br)cc2)o1    active

Prompt line: Please share the test call associated with O=C1Nc2ccc(Cl)cc2/C1=C/c1ccc(OCc2ccccn2)cc1 .
Response line: inactive

Prompt line: Please share the test call associated with CCCn1c(O)c(N=Nc2nc(-c3cc4ccccc4oc3=O)cs2)c2cc(Br)ccc21 .
Response line: inactive

----------
- System: PC-3 prostate
- MEASUREMENT PROTOCOL: NCI-60 one-dose screen, 48 h (100 = growth as untreated, 0 = no growth, -100 = all killed)
- CONDITIONS: 10 µM
Compounds without any hit were thinned out: in the full panel of roughly 83,000, 20% have a hit.
QUANTITY KIND: growth (%)
Answer in %, number only, no unit symbol.

Solved cases below.
CC(=C(c1ccc(OCCCN(C)C)cc1)c1ccc(OCCCN(C)C)cc1)c1ccccc1    -74.2
COc1ccc(N(C)c2cc(C#N)nc3ccccc23)cc1N    30.3
N#Cc1c(-c2ccc(F)cc2)nc(SCc2ccc([N+](=O)[O-])cc2)nc1N1CCOCC1    59.1
Cc1noc2c(Cc3ccccc3)nn(CC(=O)N/N=C/c3ccc(Br)cc3)c(=O)c12    82.7
Cc1cc(C)cc(Oc2cccc(-c3c(C)nnn3C3CCN(CCN(C)C)CC3)n2)c1    37.7

Prompt line: Data request, read-out growth, for COc1csc(/C=N/NC(=O)c2[nH]c3ccc(Br)cc3c2-c2ccccc2)c1
Response line: 14.9

Prompt line: Data request, read-out growth, for COc1cc(/C=C/C(=O)c2ccc(F)cc2)ccc1Oc1nc(Nc2ccc(F)cc2)nc(N(C)C)n1
Response line: 63.9

Prompt line: Data request, read-out growth, for CN1CCCN(Cc2ccc(C(=O)Nc3cccc(Nc4ccc5c(O)cccc5n4)c3)cc2C(F)(F)F)CC1
Response line: 2.18

Prompt line: Data request, read-out growth, for O=C(O)CCCCCCCCCCN1C(=O)/C(=C/c2cnc(-c3ccc(Cl)cc3)s2)SC1=S
Response line: 25.4
